target: Histamine H1 receptor (Cavia porcellus, UniProt P31389); assay: Displacement of [3H]mepyramine from histamine H1 receptor in guinea pig cerebellum membranes; assay type: cell membranes, Membrane
Sequence (P31389 whole entry): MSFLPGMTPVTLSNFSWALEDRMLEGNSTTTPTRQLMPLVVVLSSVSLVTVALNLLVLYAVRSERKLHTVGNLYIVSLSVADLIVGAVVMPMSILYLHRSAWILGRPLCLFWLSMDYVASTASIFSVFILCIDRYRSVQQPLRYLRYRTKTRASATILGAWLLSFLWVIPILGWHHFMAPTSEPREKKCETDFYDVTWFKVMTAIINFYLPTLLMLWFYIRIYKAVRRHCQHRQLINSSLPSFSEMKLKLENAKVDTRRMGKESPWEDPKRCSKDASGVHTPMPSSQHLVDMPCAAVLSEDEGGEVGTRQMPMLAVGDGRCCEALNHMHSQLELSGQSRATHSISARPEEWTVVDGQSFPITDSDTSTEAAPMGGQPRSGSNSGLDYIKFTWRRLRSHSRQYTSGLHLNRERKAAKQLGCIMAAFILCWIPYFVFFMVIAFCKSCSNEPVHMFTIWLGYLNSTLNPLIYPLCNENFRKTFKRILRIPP
metric: IC50

Illustrative cases are given below, each with its answer.
{"compound": "CCOCCn1cc(C2CCN(Cc3ccc(F)c(C(=O)O)c3)CC2)c2ccccc21", "systemUnderTest": "Histamine H1 receptor (Cavia porcellus, UniProt P31389)", "metric": "IC50", "experimentalResult": "300 nM (antagonist)"}
{"compound": "O=C(O)c1cccc(CN2CCC(c3cn(Cc4ccc(Cl)s4)c4ccccc34)CC2)c1", "systemUnderTest": "Histamine H1 receptor (Cavia porcellus, UniProt P31389)", "metric": "IC50", "experimentalResult": "103 nM (antagonist)"}
{"compound": "O=C(O)c1ccccc1OCCN1CCC(c2cn(Cc3ccoc3)c3cc(F)ccc23)CC1", "systemUnderTest": "Histamine H1 receptor (Cavia porcellus, UniProt P31389)", "metric": "IC50", "experimentalResult": "42 nM (antagonist)"}
{"compound": "CCOCCn1cc(C2CCN(Cc3cc(C(=O)O)ccc3Br)CC2)c2ccccc21", "systemUnderTest": "Histamine H1 receptor (Cavia porcellus, UniProt P31389)", "metric": "IC50", "experimentalResult": "345 nM (antagonist)"}
{"compound": "CCOCCn1cc(C2CCN(CCOc3ccsc3C(=O)O)CC2)c2ccccc21", "systemUnderTest": "Histamine H1 receptor (Cavia porcellus, UniProt P31389)", "metric": "IC50", "experimentalResult": "100 nM (antagonist)"}
{"compound": "CCOCCn1cc(C2CCN(Cc3ccc(OCC(=O)O)cc3)CC2)c2ccccc21", "systemUnderTest": "Histamine H1 receptor (Cavia porcellus, UniProt P31389)", "metric": "IC50", "experimentalResult": "322 nM (antagonist)"}
{"compound": "COCCn1cc(C2CCN(Cc3cccc(C(=O)O)c3)CC2)c2ccc(F)cc21", "systemUnderTest": "Histamine H1 receptor (Cavia porcellus, UniProt P31389)", "metric": "IC50", "experimentalResult": "150 nM (antagonist)"}
{"compound": "CCOCCn1cc(C2CCN(Cc3ccccc3OCC(=O)O)CC2)c2ccccc21", "systemUnderTest": "Histamine H1 receptor (Cavia porcellus, UniProt P31389)", "metric": "IC50", "experimentalResult": "196 nM (antagonist)"}
{"compound": "CCOCCn1cc(C2CCN(CCOc3ccccc3C(=O)O)CC2)c2cc(Br)ccc21", "systemUnderTest": "Histamine H1 receptor (Cavia porcellus, UniProt P31389)", "metric": "IC50", "experimentalResult": "150 nM (antagonist)"}
{"compound": "CCCCn1cc(C2CCN(CCOc3ccccc3C(=O)O)CC2)c2ccc(F)cc21", "systemUnderTest": "Histamine H1 receptor (Cavia porcellus, UniProt P31389)", "metric": "IC50", "experimentalResult": "47 nM (antagonist)"}

For this compound ( `CCOCCn1cc(C2CCN(CCOc3cccc(F)c3C(=O)O)CC2)c2ccccc21` ), measured IC50 is 500 nM (antagonist)

For this compound ( `CCOCCn1cc(C2CCN(CCOc3c(Br)cc(Br)cc3C(=O)O)CC2)c2ccccc21` ), measured IC50 is 225 nM (antagonist)

For this compound ( `CCOCCn1cc(C2CCN(Cc3cccc(C(=O)O)c3)CC2)c2cc(OC)ccc21` ), measured IC50 is 500 nM (antagonist)

For this compound ( `CCOCCn1cc(C2CCN(CCOc3ccccc3C(=O)O)CC2)c2cccc(C)c21` ), measured IC50 is 500 nM (antagonist)

For this compound ( `O=C(O)c1ccccc1OCCN1CCC(c2cn(Cc3cccs3)c3ccccc23)CC1` ), measured IC50 is 98 nM (antagonist)

---

test system: Rattus norvegicus; assay: Inhibition of increase in histamine-induced cutaneous vascular permeability in orally dosed Wistar rat model after 8 hrs; type: functional; details: po
Collected ED50 values appear next to each entry.

Illustrative cases are given below, each with its answer.
{"entrySmiles": "COc1ccc(CN2CCC(c3cn(Cc4cccs4)c4cc(F)ccc34)CC2)cc1C(=O)O", "experimentalResult": "0.66 mg/kg (antagonist)"}
{"entrySmiles": "CCOCCn1cc(C2CCN(Cc3ccc(F)c(C(=O)O)c3)CC2)c2ccccc21", "experimentalResult": "0.01 mg/kg (antagonist)"}
{"entrySmiles": "COCCn1cc(C2CCN(Cc3ccc(OC)c(C(=O)O)c3)CC2)c2ccc(F)cc21", "experimentalResult": "0.02 mg/kg (antagonist)"}

For this compound ( `COCCn1cc(C2CCN(CCOc3ccccc3C(=O)O)CC2)c2ccc(F)cc21` ), measured ED50 is 0.13 mg/kg (antagonist)

For this compound ( `CCOCCn1cc(C2CCN(Cc3ccc(C(=O)O)cc3)CC2)c2ccccc21` ), measured ED50 is 0.15 mg/kg (antagonist)

For this compound ( `COCCn1cc(C2CCN(Cc3ccc(OC)c(C(=O)O)c3)CC2)c2ccccc21` ), measured ED50 is 0.14 mg/kg (antagonist)

For this compound ( `COc1ccc(CN2CCC(c3cn(Cc4ccoc4)c4cc(F)ccc34)CC2)cc1C(=O)O` ), measured ED50 is 0.037 mg/kg (antagonist)

For this compound ( `O=C(O)c1ccccc1OCCN1CCC(c2cn(Cc3ccoc3)c3cc(F)ccc23)CC1` ), measured ED50 is 0.17 mg/kg (antagonist)

---

Collected ED50 values appear next to each entry.
test system: Rattus norvegicus; experiment: Inhibition of increase in histamine-induced cutaneous vascular permeability in orally dosed Wistar rat model after 8 hrs; assay type: functional; conditions: po

{"entrySmiles": "O=C(O)c1ccccc1OCCN1CCC(c2cn(CCC3OCCO3)c3ccccc23)CC1", "systemUnderTest": "Rattus norvegicus", "experimentalResult": "0.9 mg/kg (antagonist)"}
{"entrySmiles": "CCCCn1cc(C2CCN(CCOc3ccccc3C(=O)O)CC2)c2ccccc21", "systemUnderTest": "Rattus norvegicus", "experimentalResult": "0.8 mg/kg (antagonist)"}
{"entrySmiles": "CCOCCn1cc(C2CCN(CCOc3ccccc3C(=O)O)CC2)c2ccccc21", "systemUnderTest": "Rattus norvegicus", "experimentalResult": "0.22 mg/kg (antagonist)"}
{"entrySmiles": "O=C(O)c1ccccc1OCCN1CCC(c2cn(Cc3ccco3)c3cc(F)ccc23)CC1", "systemUnderTest": "Rattus norvegicus", "experimentalResult": "2.2 mg/kg (antagonist)"}
{"entrySmiles": "COc1ccc(CN2CCC(c3cn(Cc4ccc(Cl)s4)c4cc(F)ccc34)CC2)cc1C(=O)O", "systemUnderTest": "Rattus norvegicus", "experimentalResult": "0.09 mg/kg (antagonist)"}

For this compound ( `O=C(O)c1ccccc1OCCN1CCC(c2cn(CC3CC3)c3ccccc23)CC1` ), measured ED50 is 1.3 mg/kg (antagonist)

---

Biological target: Adrenergic receptor alpha-1 (Rattus norvegicus, UniProt P15823+P23944+P43140)
Sequence (P15823 whole entry): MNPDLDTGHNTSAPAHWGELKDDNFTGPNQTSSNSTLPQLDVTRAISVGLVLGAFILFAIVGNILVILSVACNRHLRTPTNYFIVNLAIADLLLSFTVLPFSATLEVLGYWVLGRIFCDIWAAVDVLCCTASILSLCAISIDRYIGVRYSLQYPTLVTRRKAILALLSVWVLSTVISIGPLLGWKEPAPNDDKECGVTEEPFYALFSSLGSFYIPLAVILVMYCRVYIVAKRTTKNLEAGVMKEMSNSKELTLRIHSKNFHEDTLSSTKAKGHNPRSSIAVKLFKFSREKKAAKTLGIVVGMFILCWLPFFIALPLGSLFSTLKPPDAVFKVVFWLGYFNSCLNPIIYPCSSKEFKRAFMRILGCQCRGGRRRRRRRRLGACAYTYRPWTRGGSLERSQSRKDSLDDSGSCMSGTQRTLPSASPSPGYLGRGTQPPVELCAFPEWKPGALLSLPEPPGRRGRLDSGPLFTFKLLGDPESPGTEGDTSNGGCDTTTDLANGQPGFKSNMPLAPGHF
Sequence (P23944 whole entry): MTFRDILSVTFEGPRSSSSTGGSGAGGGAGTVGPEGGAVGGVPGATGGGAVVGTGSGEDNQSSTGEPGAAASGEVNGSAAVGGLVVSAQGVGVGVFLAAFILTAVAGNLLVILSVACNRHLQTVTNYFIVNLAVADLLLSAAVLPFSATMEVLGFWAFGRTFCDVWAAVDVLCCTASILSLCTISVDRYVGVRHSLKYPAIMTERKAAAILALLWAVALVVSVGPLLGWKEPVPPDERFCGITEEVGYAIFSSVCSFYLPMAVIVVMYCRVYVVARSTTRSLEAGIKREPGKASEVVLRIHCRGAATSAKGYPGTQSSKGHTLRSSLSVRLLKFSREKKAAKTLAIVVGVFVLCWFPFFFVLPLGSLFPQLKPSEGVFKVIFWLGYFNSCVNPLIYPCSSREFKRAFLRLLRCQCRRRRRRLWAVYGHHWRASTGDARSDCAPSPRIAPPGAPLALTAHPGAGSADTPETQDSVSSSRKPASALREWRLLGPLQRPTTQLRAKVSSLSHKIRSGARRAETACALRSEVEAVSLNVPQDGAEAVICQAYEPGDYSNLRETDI
Sequence (P43140 whole entry): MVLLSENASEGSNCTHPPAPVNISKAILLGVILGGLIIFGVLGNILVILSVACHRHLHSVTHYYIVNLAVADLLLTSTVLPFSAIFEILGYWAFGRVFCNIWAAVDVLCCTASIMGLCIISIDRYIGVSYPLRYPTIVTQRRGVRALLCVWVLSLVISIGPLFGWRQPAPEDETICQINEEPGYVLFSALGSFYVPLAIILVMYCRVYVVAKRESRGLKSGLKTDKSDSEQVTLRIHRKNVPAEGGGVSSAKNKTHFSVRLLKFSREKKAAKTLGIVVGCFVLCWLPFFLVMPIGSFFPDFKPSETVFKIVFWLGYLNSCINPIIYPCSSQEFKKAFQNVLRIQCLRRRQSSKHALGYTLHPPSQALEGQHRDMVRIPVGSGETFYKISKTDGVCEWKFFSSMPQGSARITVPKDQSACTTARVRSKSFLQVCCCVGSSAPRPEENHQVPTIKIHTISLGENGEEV
Assay: Displacement of [3H]prazosin from adrenergic alpha-1 receptor in rat brain membranes
Type: cell membranes
Collected IC50 values appear next to each entry.

Illustrative cases are given below, each with its answer.
{"entrySmiles": "O=C(O)c1ccccc1OCCN1CCC(c2cn(Cc3ccoc3)c3cc(F)ccc23)CC1", "IC50": "> 10 µM"}
{"entrySmiles": "CCOCCn1cc(C2CCN(CCOc3ccccc3C(=O)O)CC2)c2cccc(C)c21", "IC50": "7.6 µM"}

Shift focus to the following entry.
For this compound ( `CCOCCn1cc(C2CCN(Cc3cc(C(=O)O)ccc3Br)CC2)c2ccccc21` ), measured IC50 is > 10 µM
